Numbers sourced from PubChem BioAssay (NCI).

# System: HCT-116 colon
# experiment_notes: NCI-60 one-dose screen, 48 h (100 = growth as untreated, 0 = no growth, -100 = all killed)
# test_settings: 10 µM unless noted
The panel holds about 83,000 compounds, 20% with a hit somewhere; the sample as a whole holds those more often.
Outcome label depends on growth relative to -40%: at/above gives Satisfied, below gives Not satisfied.

compound: CC1=C(C(=O)OCc2ccccc2)C(c2c(O)cc(O)cc2O)n2c(nc3ccccc32)N1 (centres undefined)
target_or_system: HCT-116 colon
class_assignment: Satisfied

// inclusive: growth at least -40%? input: CC(C)(C)OC(=O)/C=C/c1cccc2c1C(=O)NC(C)(c1cc3cc(Cl)ccc3oc1=O)N2 (centres undefined)
Satisfied

I'd appreciate it if you could say whether S=C(Nc1ccc(OCc2nc3ccccc3[nH]2)cc1)NC1CCCCC1 has growth at least equal to -40%.
Satisfied

Quick check: does COc1ccc(C(=O)/C=C/c2cc3c(cc2Br)OCO3)cc1S(N)(=O)=O have growth greater than or equal to -40%?
Not satisfied

Does COc1ccc(C(=O)Nc2n[nH]c(Nc3ccccc3)c2C#N)cc1 have a reported growth of at least -40%?
Satisfied
